So I've got a bunch of molecules here, and I need their LDH Increase - Index Value values.
Test system: Hepatotoxicity
Assay: FDA HLAED, lactate dehydrogenase (LDH) increase
Settings: human
// return just the number, without any unit appended

Recorded LDH Increase - Index Value (molecule `CCCCC[C@H](O)/C=C/[C@H]1[C@H](O)CC(=O)[C@@H]1CCCCCCC(=O)O` ): 0

Query `C[N+](C)(C)CCO.Cn1c(=O)c2[n-]cnc2n(C)c1=O` yields LDH Increase - Index Value of 0

The recorded LDH Increase - Index Value for entry CCC(=O)Oc1ccc2c(c1)CC[C@@H]1[C@@H]2CC[C@]2(C)[C@@H](OC(=O)CC)CC[C@@H]12 [ESTRADIOL DIPROPIONATE] equals 1.2

Looking up O=c1[nH]c2ccccc2n1C1CCN(CCCC(c2ccc(F)cc2)c2ccc(F)cc2)CC1 [PIMOZIDE] , I found its LDH Increase - Index Value recorded as 0

----------
Tested on: Hepatotoxicity
Assay: FDA HLAED, alkaline phosphatase increase
Details: human
Returns one of Satisfied or Not satisfied; Satisfied when Alkaline Phosphatase Increase - Index Value is >= 1.

Query :: Record `CCOC(=O)[C@H](CCc1ccccc1)N[C@@H](C)C(=O)N1Cc2ccccc2C[C@H]1C(=O)O` ; criterion: Alkaline Phosphatase Increase - Index Value no lower than 1. Met?
Result :: Satisfied

Query :: Please indicate if the recorded Alkaline Phosphatase Increase - Index Value for CCCCCc1cc(O)c2c(c1)OC(C)(C)[C@@H]1CCC(C)=C[C@@H]21 [DRONABINOL] meets or exceeds 1.
Result :: Not satisfied

Query :: Assess whether reported Alkaline Phosphatase Increase - Index Value for CN(C/C=C/C#CC(C)(C)C)Cc1cccc2ccccc12 [TERBINAFINE] sits at 1 or higher.
Result :: Satisfied

Query :: Item CN(Cc1ccc(C(C)(C)C)cc1)Cc1cccc2ccccc12 [BUTENAFINE] with Alkaline Phosphatase Increase - Index Value of 1 or above?
Result :: Not satisfied

Query :: Please indicate if the recorded Alkaline Phosphatase Increase - Index Value for CC(=O)Oc1c(C)cc(OCC(O)CNC(C)C)c(C)c1C (configuration not stated) [METIPRANOLOL] meets or exceeds 1.
Result :: Not satisfied

Query :: Given O=C(O)C1=C(CSc2nnnn2CS(=O)(=O)O)CS[C@@H]2[C@H](NC(=O)[C@H](O)c3ccccc3)C(=O)N12 [CEFONICID] , state whether its Alkaline Phosphatase Increase - Index Value is at least 1.
Result :: Satisfied

Query :: Would you say CC[C@H]1OC(=O)[C@H](C)[C@@H](O[C@H]2C[C@@](C)(OC)[C@@H](O)[C@H](C)O2)[C@H](C)[C@@H](O[C@@H]2O[C@H](C)C[C@H](N(C)C)[C@H]2O)[C@](C)(O)C[C@@H](C)C(=O)[C@H](C)[C@@H](O)[C@]1(C)O [ERYTHROMYCIN] shows Alkaline Phosphatase Increase - Index Value at minimum 1?
Result :: Satisfied

----------
Kindly supply the reported Alkaline Phosphatase Increase - Index Value values for the records listed here.
System: Hepatotoxicity
Assay: FDA HLAED, alkaline phosphatase increase
Conditions: human
Returns: the value as a bare number; no unit string appended.

Alkaline Phosphatase Increase - Index Value measured on `CN1CCN(C2=Nc3cc(Cl)ccc3Nc3ccccc32)CC1` = 34.2

Reported Alkaline Phosphatase Increase - Index Value for `CCOC(=O)[C@H](CCc1ccccc1)N[C@@H](C)C(=O)N1[C@H](C(=O)O)C[C@H]2CCCC[C@@H]21` was 0

Please fill in: Alkaline Phosphatase Increase - Index Value reported for `CC[C@H]1OC(=O)[C@H](C)[C@@H](O[C@H]2C[C@@](C)(OC)[C@@H](O)[C@H](C)O2)[C@H](C)[C@@H](O[C@@H]2O[C@H](C)C[C@H](N(C)C)[C@H]2O)[C@](C)(O)C[C@@H](C)[C@@H]2N[C@@H](COCCOC)O[C@H]([C@H]2C)[C@]1(C)O` = 0

Consider CO/N=C(\C(=O)N[C@@H]1C(=O)N2C(C(=O)OC(C)OC(C)=O)=C(COC(N)=O)CS[C@H]12)c1ccco1 (stereo not given in full) . Its measured Alkaline Phosphatase Increase - Index Value is 0

// recorded Alkaline Phosphatase Increase - Index Value for `C[C@]12CC[C@@H]3c4ccc(OC(=O)Cc5ccc(N(CCCl)CCCl)cc5)cc4CC[C@H]3[C@@H]1CC[C@@H]2OC(=O)Cc1ccc(N(CCCl)CCCl)cc1` : 0

Alkaline Phosphatase Increase - Index Value recorded for this compound, Clc1ccc(COC(Cn2ccnc2)c2ccc(Cl)cc2Cl)cc1 (stereo not given) , is 0

# compound OC(c1cc(C(F)(F)F)nc2c(C(F)(F)F)cccc12)C1CCCCN1 (stereo not given) ; its Alkaline Phosphatase Increase - Index Value = 7.2

Quick note, Alkaline Phosphatase Increase - Index Value for CCC(=O)[C@@]1(C)[C@H](C)C[C@H]2[C@@H]3CCC4=CC(=O)C=C[C@]4(C)[C@H]3[C@@H](O)C[C@@]21C [RIMEXOLONE] landed at 0

Alkaline Phosphatase Increase - Index Value measured on `CC(O)(P(=O)(O)O)P(=O)(O)O` = 8.6

Given item `COC1=CC(=O)C[C@@H](C)[C@]12Oc1c(Cl)c(OC)cc(OC)c1C2=O` , the value recorded as its Alkaline Phosphatase Increase - Index Value is 5.5

Value of measured Alkaline Phosphatase Increase - Index Value for the entry `COc1ccc(CCN2CCC(Nc3nc4ccccc4n3Cc3ccc(F)cc3)CC2)cc1` : 1.2

response.value for CCCNCC(O)COc1ccccc1C(=O)CCc1ccccc1 (stereo not given) (field: Alkaline Phosphatase Increase - Index Value) = 7.6

Record `C[C@H]1[C@H](NC(=O)/C(=N\OC(C)(C)C(=O)O)c2csc(N)n2)C(=O)N1S(=O)(=O)O` . Reported Alkaline Phosphatase Increase - Index Value: 6.9

Value of Alkaline Phosphatase Increase - Index Value reported for the compound `CC(C)(C)NC[C@H](O)COc1cccc2c1CCCC2=O` is 0

The values you see were collected from ChEMBL document CHEMBL1697781.
